Test system: complementary RNA
experimentDescription: Thermal denaturation (UV melting) of AON duplexes with complementary RNA
Format: binding
measurementParameters: relative to native AON 1/RNA duplex
Reported ΔTm (Tm relative to RNA compliment) values are given for each entry in this list.

// worked examples, ΔTm (Tm relative to RNA compliment) included
substance	readoutValue
3′-d(CTT(LNA)CTTTTTTACTTC)-5′ (antisense CTTCTTTTTTACTTC; LNA-T at position 3 from 3'-end, chemistry not fully specified) [AON 2, LNA-T modified AON, position 3 from 3′-end]	+4 °C
3′-d(CTTCTT(5-carbo)TTTTACTTC)-5′ (antisense CTTCTTTTTTACTTC; carbocyclic-LNA-T at position 6 from 3'-end, chemistry not fully specified) [AON 7, carbocyclic-LNA-T modified AON, position 6 from 3′-end]	+5 °C
3′-d(CTTCTTTTTT(LNA)ACTTC)-5′ (antisense CTTCTTTTTTACTTC; LNA-T at position 10 from 3'-end, chemistry not fully specified) [AON 5, LNA-T modified AON, position 10 from 3′-end]	+5 °C
3′-d(CTTCTTTT(aza-ENA)TTACTTC)-5′ (antisense CTTCTTTTTTACTTC; aza-ENA-T at position 8 from 3'-end, chemistry not fully specified) [AON 16, aza-ENA-T modified AON, position 8 from 3′-end]	+3.5 °C

Moving on to another substance below.
Request body: readout ΔTm (Tm relative to RNA compliment), system complementary RNA, query 3′-d(CTTCT T(LNA)TTTTACTTC)-5′ [AON 3] . Return the value.
+5 °C

---

Reported Tm/° C. with RNA values are given for each entry in this list.
Test system: complementary RNA
experimentDescription: Thermal denaturation (UV melting) of AON duplexes with complementary RNA
Assay type: binding
measurementParameters: 1 μM of each strand, medium salt buffer pH 7.5, average of at least three runs
Experimental: All 17 modified AONs have been purified as a single component on PAGE (20% polyacrylamide with 7 Molar urea), extracted with 0.3 M NaOAc and desalted with C-18 reverse phase cartridge to give AONs in >99% purity and correct mass have been obtained by MALDI-TOF mass spectroscopy for each one them (Table 1). Determination of the Tm of the AON/RNA hybrids was carried out in the following buffer: 57 mM Tris-HCl (pH 7.5), 57 mM KCl, 1 mM MgCl2. […]
Lab book: enter the figure in °C, no units written.

// worked examples, Tm/° C. with RNA included
substance	targetSystem	unitAbbreviation	Tm/° C. with RNA
3′-d(CTTCTTTT(5-carbo)TTACTTC)-5′ (antisense CTTCTTTTTTACTTC; carbocyclic-LNA-T at position 8 from 3'-end, chemistry not fully specified) [AON 8, carbocyclic-LNA-T modified AON, position 8 from 3′-end]	complementary RNA	°C	48
3′-d(CTTCTTTTTTACTTC)-5′ (DNA, backbone not given here) [AON 1, native unmodified 15mer DNA antisense oligonucleotide]	complementary RNA	°C	44

Moving on to another substance below.
Quick one: Tm/° C. with RNA of 3′-d(CTTCTT(6-carbo)TTTTACTTC)-5′ [AON 11] ?
45.5

---

Test system: complementary DNA
experimentDescription: Thermal denaturation (UV melting) of AON duplexes with complementary DNA
Format: binding
measurementParameters: 1 μM of each strand, medium salt buffer pH 7.5, average of at least three runs
Reported Tm/° C. with DNA values are given for each entry in this list.
Lab book: enter the figure in °C, no units written.

// worked examples, Tm/° C. with DNA included
substance	readoutValue
3′-d(CTTCTTTTTT(5-carbo)ACTTC)-5′ (antisense CTTCTTTTTTACTTC; carbocyclic-LNA-T at position 10 from 3'-end, chemistry not fully specified) [AON 9, carbocyclic-LNA-T modified AON, position 10 from 3′-end]	43.0
3′-d(CTTCTTTTTTACTTC)-5′ (DNA, backbone not given here) [AON 1, native unmodified 15mer DNA antisense oligonucleotide]	45
3′-d(CTTCTTTT(6-carbo)TTACTTC)-5′ [AON 12]	40.0
3′-d(CTT(5-carbo)CTTTTTTACTTC)-5′ (antisense CTTCTTTTTTACTTC; carbocyclic-LNA-T at position 3 from 3'-end, chemistry not fully specified) [AON 6, carbocyclic-LNA-T modified AON, position 3 from 3′-end]	45
3′-d(CTTCTT(aza-ENA)TTTTACTTC)-5′ (antisense CTTCTTTTTTACTTC; aza-ENA-T at position 6 from 3'-end, chemistry not fully specified) [AON 15, aza-ENA-T modified AON, position 6 from 3′-end]	42.5

Moving on to another substance below.
Quick one: Tm/° C. with DNA of 3′-d(CTTCTTTTTT(aza-ENA)ACTTC)-5′ (antisense CTTCTTTTTTACTTC; aza-ENA-T at position 10 from 3'-end, chemistry not fully specified) [AON 17, aza-ENA-T modified AON, position 10 from 3′-end] ?
42
